Source listed as ChEMBL document CHEMBL4196175.

Items are presented alongside their recorded remaining at 0.5 h, 1 µM.
# experimentSummary: Metabolic stability in rat liver microsomes assessed as compound remaining at 1 uM after 30 mins
# Type: ADME, microsome
# conditionNotes: read-out: Stability

| smi | remaining at 0.5 h, 1 µM [%] |
| --- | --- |
| Cc1ccc(Nc2ncc3c(n2)N(C)C(=O)N(c2cc(NC(=O)c4cccc(C(F)(F)F)c4)ccc2C)C3)cn1 | 84.8 |
| Cc1ccc(NC(=O)c2cccc(C(F)(F)F)c2)cc1N1Cc2cnc(Nc3cnn(C)c3)nc2N(C)C1=O | 98.4 |
| Cc1ccc(NC(=O)c2cccc(C(F)(F)F)c2)cc1N1Cc2cnc(N)nc2N(C)C1=O | 81.3 |
| CCN1CCN(c2ccc(Nc3ncc4c(n3)N(C)C(=O)N(c3cc(NC(=O)c5cccc(C(F)(F)F)c5)ccc3C)C4)cn2)CC1 | 19.2 |
